procedure.text: Cytotoxicity against human UCI101 cells after 48 hrs by alamar blue assay
Type: functional, cell-based
recorded.conditions: UCI101, 48 h
pIC50: −log10 of the molar value.
Give Condition met when the value for pIC50 is at least 7. Give Condition not met when it is less.

For orientation, consider the following solved cases.
cpd.smiles: COc1cc(/C=C\c2ccc(OC)c(N)c2)cc(OCC(=O)O)c1
category.label: Condition not met
//
cpd.smiles: COc1cc2c(c(OC)c1OC)-c1ccc(OC)c(=O)cc1[C@@H](NC(C)=O)CC2
category.label: Condition met
//
cpd.smiles: COc1cc(/C=C\c2ccc(OC)c(NC(=O)OCCN3CCOCC3)c2)cc(OC)c1
category.label: Condition not met

Q: Does `COc1cc(/C=C\c2ccc3[nH]cnc3c2)cc(OC)c1` have a reported pIC50 of at least 7?
Ans: Condition not met

---

procedure.text: Solubility in water
Assay type: physicochemical
Below, each entry is listed with its recorded solubility.

cpd.smiles: COc1cc(/C=C\c2ccc(OC)c(NC(=O)OCCN3CCOCC3)c2)cc(OC)c1.O=C(O)C(=O)O
result: 5900 µg/mL
--
cpd.smiles: COc1cc(/C=C\c2ccc(OC)c(N)c2)cc(OC)c1.Cl
result: 6000 µg/mL
--
cpd.smiles: COc1cc(/C=C\c2ccc3c(ccn3C)c2)cc(OC)c1
result: < 1000 µg/mL
--
cpd.smiles: COc1ccc(/C=C\c2ccc3c(ccn3C)c2)cc1N
result: < 1000 µg/mL
--
cpd.smiles: COc1cc(/C=C\c2ccc(OC)c(NC(=O)OCCN3CCOCC3)c2)cc(OC)c1
result: < 1000 µg/mL
--
cpd.smiles: COc1cc(/C=C\c2ccc(OC)c(N)c2)cc(OC)c1
result: < 1000 µg/mL

Consider the record given below.
Q: Reported solubility, molecule `COc1cc(/C=C\c2ccc(OC)c(N)c2)cc(OC)c1.O=C(O)C(=O)O` : ____
Ans: < 1000 µg/mL

---

Test system: HL-60
procedure.text: Induction of apoptosis in human HL60 cells by flow cytometry
Format: functional, cell-based
readout.kind: IC50
The answer consists of two parts: a number and, after it, its unit.

cpd.smiles: COc1cc(/C=C\c2ccc(OC)c(O)c2)cc(OC)c1
IC50: 30 nM

Kindly consider the entry below.
Q: Fill in the recorded IC50 for this compound, with HL-60 as test system: `COc1cc(/C=C\c2ccc(OC)c(N)c2)cc(OC)c1.Cl`
Ans: 30 nM

---

# Lookup of reported IC50 keyed by entry
procedure.text: Cytotoxicity against human UCI101 cells after 48 hrs by alamar blue assay
Type: functional, cell-based
recorded.conditions: UCI101, 48 h
Give your result in nM as a bare value.

Take a look at these entries with their results.
cpd.smiles: COc1cc(O)cc(/C=C\c2ccc(OC)c(N)c2)c1
IC50 (nM): 800
//
cpd.smiles: COc1cc(/C=C\c2ccc3ccn(C)c3c2)cc(OC)c1
IC50 (nM): 220
//
cpd.smiles: COc1cc(/C=C\c2ccc(OC)c(N)c2)cc(OC)c1.Cl
IC50 (nM): 30

Q: Give its IC50 value. Item: `COc1cc(/C=C\c2ccc(OC)c(N)c2)cc(OCCO)c1`
Ans: 150

Q: Next: `COc1ccc(/C=C\c2ccc3[nH]ccc3c2)cc1N`
Ans: 5000

Q: Could you do the same for `COc1ccc(/C=C\c2ccc3c(ccn3C)c2)cc1N` , please?
Ans: 200
